- Test system: KRAS-mutant PDC tumor spheroid with HUVEC/MSC, viability;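 note: spheroids exposed to agents for seven days before reading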
- method description: Anticancer human tumor 327498-153-R-J2-PDC patient-derived uterine carcinosarcoma cell line growth inhibition [KRAS2]; active = viability on the fitted dose curve at most 10% of control; inactive = the rest
- stated conditions: second compound 1 µM; first compound 1 µM
Outcomes: active, inactive

compound	tgt	classification
CC1OCC2(CCN(c3cnc(Sc4ccnc(N)c4Cl)c(N)n3)CC2)C1N (stereo not given) + COc1cc2nc(C)nc(NC(C)c3cc(N)cc(C(F)(F)F)c3)c2cc1OC1CCOC1	KRAS-mutant PDC tumor spheroid with HUVEC/MSC, viability	inactive
O=C(c1cc(Cc2n[nH]c(=O)c3ccccc23)ccc1F)N1CCN(C(=O)C2CC2)CC1 + C=CC(=O)N1CCN(c2nc(=O)n(-c3c(C)ccnc3C(C)C)c3nc(-c4c(O)cccc4F)c(F)cc23)C(C)C1	KRAS-mutant PDC tumor spheroid with HUVEC/MSC, viability	inactive
CC(=O)OC12COC1CC(O)C1(C)C(=O)C(O)C3=C(C)C(OC(=O)C(O)C(NC(=O)OC(C)(C)C)c4ccccc4)CC(O)(C(OC(=O)c4ccccc4)C21)C3(C)C (stereo not given) + COc1cc2nc(C)nc(NC(C)c3cc(N)cc(C(F)(F)F)c3)c2cc1OC1CCOC1	KRAS-mutant PDC tumor spheroid with HUVEC/MSC, viability	active
CC(=O)OC12COC1CC(O)C1(C)C(=O)C(O)C3=C(C)C(OC(=O)C(O)C(NC(=O)OC(C)(C)C)c4ccccc4)CC(O)(C(OC(=O)c4ccccc4)C21)C3(C)C (stereo not given) + C=CC(=O)N1CCN(c2nc(OCC3CCCN3C)nc3c2CCN(c2cccc4cccc(C)c24)C3)CC1CC#N	KRAS-mutant PDC tumor spheroid with HUVEC/MSC, viability	active
CC1COCCN1c1cc(-c2ccnn2C)c2ccnc(-c3ccn[nH]3)c2n1 (stereo not given) + C=CC(=O)N1CCN(c2nc(OCC3CCCN3C)nc3c2CCN(c2cccc4cccc(C)c24)C3)CC1CC#N	KRAS-mutant PDC tumor spheroid with HUVEC/MSC, viability	active
CCNC(=O)CC1N=C(c2ccc(Cl)cc2)c2cc(OC)ccc2-n2c(C)nnc21 (stereo not given) + C=CC(=O)N1CCN(c2nc(=O)n(-c3c(C)ccnc3C(C)C)c3nc(-c4c(O)cccc4F)c(F)cc23)C(C)C1	KRAS-mutant PDC tumor spheroid with HUVEC/MSC, viability	inactive
CCN1CCN(Cc2ccc(Nc3ncc(F)c(-c4cc(F)c5nc(C)n(C(C)C)c5c4)n3)nc2)CC1 + CNCc1ccccc1-c1csc(C(C)Nc2nc(C)nc3cc(OC)c(OC)cc23)c1	KRAS-mutant PDC tumor spheroid with HUVEC/MSC, viability	inactive
COc1cc(Nc2ncc3c(n2)-c2ccc(Cl)cc2C(c2c(F)cccc2OC)=NC3)ccc1C(=O)O + COc1cc2nc(C)nc(NC(C)c3cc(N)cc(C(F)(F)F)c3)c2cc1OC1CCOC1	KRAS-mutant PDC tumor spheroid with HUVEC/MSC, viability	inactive
COc1cc2nccc(Oc3ccc(NC(=O)C4(C(=O)Nc5ccc(F)cc5)CC4)cc3)c2cc1OC + C=CC(=O)N1CCN(c2nc(=O)n(-c3c(C)ccnc3C(C)C)c3nc(-c4c(O)cccc4F)c(F)cc23)C(C)C1	KRAS-mutant PDC tumor spheroid with HUVEC/MSC, viability	inactive
Cn1nccc1Nc1nccc(-c2cc3c(s2)C(C)(C)N(CCN2CCOCC2)C3=O)n1 + C=CC(=O)N1CCN(c2nc(OCC3CCCN3C)nc3c2CCN(c2cccc4cccc(C)c24)C3)CC1CC#N	KRAS-mutant PDC tumor spheroid with HUVEC/MSC, viability	inactive

These entries and their values trace back to PubChem BioAssay AID1963867.
